experiment: Nile Red efflux blockade in pump-expressing yeast – validation compound set, multiplex, phenotypic, pilot screen (AID 588506);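 also: Nile Red retained in cells so higher fluorescence means more efflux inhibition; 0 = negative control wells and 1 = enniatin B 25 µM full block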; conditions: S. cerevisiae pump-expressing triplex, Nile Red efflux flow cytometry; at 10 µM; stronger effect = higher value; the pumps come from Candida albicans
endpoint.label: efflux inhibition (fraction of control)
Numbers only.

Check out these entries, answers already filled in.
| molecule | efflux inhibition (fraction of control) |
| --- | --- |
| C=CCNC(=O)c1ccc(-c2cccc([N+](=O)[O-])c2)o1 | -0.34 |
| Cn1cc(C2N3CC4(C)CN2CC(C)(C3)C4=O)c2ccccc21 (stereo unspecified) | -0.01 |
| COc1ccc(CN(CCC(c2ccccc2)c2ccc(OC(C)C)cc2)C(=O)CCl)cc1OC (stereo unspecified) | -0.2 |
| COC(=O)C1=C(C)NC(C)=C(C(=O)OCCN(C)Cc2ccccc2)C1c1cccc([N+](=O)[O-])c1 (stereo unspecified) | 0.01 |
| Cc1ccc(/C=N/NC(=O)C2(C)CC2(Br)Br)cc1 (stereo unspecified) | -0.22 |

API: the following record is the query input.
Query: # lookup: efflux inhibition (fraction of control) of CS(=O)c1ccccc1O (stereo unspecified)
Response: -0.15

* * *

So I've got a bunch of compounds here, and I need their fluorescence, percent of control (lower = inhibition) values.
biological target: Cell division control protein 42 homolog (Homo sapiens); assay: inhibition of fluorescent GTP binding to wildtype Cdc42 – biochemical, multiplex bead flow cytometry, Bodipy-FL-GTP, dose response (AID 1334); details: bead-based flow cytometry, Bodipy-FL-GTP binding to GST-Cdc42; at 100 µM (top of the series) unless noted
Potency and affinity values are given separately.
Numbers only, in %.

| compound | test.value |
| --- | --- |
| CN(C)/C=C(\C#N)C(N)=C(C#N)C#N | 38.1 |

Dear colleague, could you send me fluorescence, percent of control (lower = inhibition) for each of the items below? Thanks.
1. O=C1NC(=S)N/C1=C/c1cc([N+](=O)[O-])ccc1O
2. CCN1/C(=C/C=C/C=C/c2sc3ccccc3[n+]2CC)Sc2ccccc21
3. COc1ccc(CNCc2sc(C(=O)O)cc2C)cc1OC
4. CCCOc1ccc(C(CC(=O)O)NC(=O)c2sc3ccccc3c2Cl)cc1 (configuration not stated)
5. Cc1nnc(SCCN2CCOCC2)c2nn(-c3ccccc3F)c(C)c12

Response:
[60.7, 1.8, 59.2, 28.6, 48.5]

Dear colleague, could you send me fluorescence, percent of control (lower = inhibition) for each of the items below? Thanks.
1. Cc1c(C(=O)N/N=C/c2ccc(O)c(Br)c2)sc(N)c1C#N
2. CCOc1ccc(NCc2ccccc2OCc2cccc(F)c2)cc1
3. COc1ccc([N+](=O)[O-])cc1NC(=S)NC(NC(=O)Cc1ccc(OC)c(OC)c1)C(Cl)(Cl)Cl (configuration not stated)
4. CC(=O)NC1CC2CCCC(C1)N2C(=O)Nc1ccc(Cl)c(C(F)(F)F)c1 (configuration not stated)

Response:
1. 27.1
2. 69.4
3. 75.7
4. 91.1

Dear colleague, could you send me fluorescence, percent of control (lower = inhibition) for each of the items below? Thanks.
1. CCOc1c2ccc(C(=O)N[C@H](C)C3CCCCC3)cc2nn1CCOC
2. Cc1ccc(-n2c(=O)[nH]c3c(oc4ccccc43)c2=O)cc1
3. CCNC(=S)N(Cc1cccs1)Cc1cc2cc(OCC)ccc2[nH]c1=O
4. Cc1cc(C(=O)O)sc1CNCc1ccccc1Cl
5. COc1ccc(OC)c(CCNCc2ccc(C(=O)O)s2)c1
6. CCN1C(c2ccccc2)=C(c2ccccc2)S/C1=C/C=C1\SC(=S)N(C)C1=O

Response:
[94.9, 34.8, 45, 60.4, 58.4, 41.8]

Dear colleague, could you send me fluorescence, percent of control (lower = inhibition) for each of the items below? Thanks.
1. COC(=O)C1=C(C)NC(=O)/C1=C\c1cc(C)n(-c2c(C)cccc2C)c1C
2. Cn1nc([N+](=O)[O-])c(C(C#N)c2ccccn2)c(Cl)c1=O (configuration not stated)
3. COc1ccc(OCc2nc3c4cc(OC)c(OC)cc4nc(=S)n3[nH]2)cc1
4. Cc1ccc(C)c(N(CC(N)=O)S(C)(=O)=O)c1
5. COc1ccc(S(=O)(=O)N2CCOCC2)cc1NC(=O)COc1cccnc1[N+](=O)[O-]
6. CCCN(CC1CC1)C(=S)Nc1ccc(Oc2ccccc2)cc1

Response:
1: 37; 2: 24; 3: 31.9; 4: 103; 5: 36.2; 6: 26.1

* * *

test: TOR pathway LAP4-GFP level changes – S. cerevisiae, multiplex flow cytometry, primary screen (AID 1873); conditions: S. cerevisiae LAP4-GFP expression, 3 h, at 10 µM, stronger effect = higher value
Results filed as inconclusive are left out.
endpoint.label: GFP response vs DMSO (%)
Give bare numbers, in %.

| molecule | reading.unit | GFP response vs DMSO |
| --- | --- | --- |
| C=CCOc1ccc(C(=O)CC)cc1OC | % | 106 |
| Cc1ncc(CN2CCC(CO)(CCc3ccccc3)CC2)s1 | % | 102 |
| COc1cc(C(=O)NCCCCCC(=O)O)cc(OC)c1OC | % | 103 |
| CC1CCCC(C)N1NC(=O)c1ccc(Cl)c(S(N)(=O)=O)c1 (stereo unspecified) | % | 85.8 |
| COc1ccc(C2NCCC3(O)CCCCC23)c(OC)c1OC (stereo unspecified) | % | 107 |

API: the following record is the query input.
Query: # lookup: GFP response vs DMSO of O=C(COc1ccc2ccc(=O)oc2c1)c1ccccc1
Response: 85.3

* * *

target: Cell division control protein 42 homolog (Homo sapiens) (UniProt P60953); assay: inhibition of fluorescent GTP binding to constitutively active Cdc42 – biochemical, multiplex bead flow cytometry, Bodipy-FL-GTP, dose response (AID 1333); settings: bead-based flow cytometry; series mostly up to 100 µM
Sequence (P60953 whole entry, looked up): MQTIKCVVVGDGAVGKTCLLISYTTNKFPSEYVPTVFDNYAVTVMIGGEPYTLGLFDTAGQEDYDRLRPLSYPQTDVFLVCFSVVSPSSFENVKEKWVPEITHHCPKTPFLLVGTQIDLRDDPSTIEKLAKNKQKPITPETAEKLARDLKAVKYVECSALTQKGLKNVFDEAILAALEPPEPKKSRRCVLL
Results with a measured potency or affinity are listed apart. Active and inactive are the calls of the source.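 Rule for the calls: active = fitted half-maximal concentration within the tested dose range, moderate curve steepness, a statistically real signal drop, and little compound fluorescence or tag-binding interference; inactive = the rest.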
endpoint.label: outcome

Check out these entries, answers already filled in.
| compound | outcome |
| --- | --- |
| Cc1n[nH]c(=S)c2nn(-c3ccccc3F)c(C)c12 | inactive |
| O=C(OCCN1CCCCC1)c1cc2ccccc2o1 | inactive |
| CCOc1ccccc1C1C(C(=O)OC)=C(N)OC2=C1C(=O)CCC2 (stereo not drawn) | inactive |
| N=c1oc2ccc3ccccc3c2cc1-c1nc(-c2ccccc2)cs1 | inactive |
| O=C(C#Cc1cccc(O)c1)c1ccc([N+](=O)[O-])cc1 | inactive |

Dear colleague, could you send me outcome for each of the items below? Thanks.
1. O=C(O)C1=C[C@H](c2ccc(Br)cc2)C[C@H](OCc2ccc(CO)cc2)O1
2. CCCS(=O)(=O)c1nnnn1-c1cccc(OC)c1
3. COc1cc(NS(=O)(=O)c2ccc(NC(=O)/C=C/c3cccc([N+](=O)[O-])c3)cc2)ncn1

Response:
["inactive", "inactive", "inactive"]

Dear colleague, could you send me outcome for each of the items below? Thanks.
1. O=C1c2oc3ccc(Br)cc3c(=O)c2C(c2cccc(F)c2)N1CCO (stereo not drawn)
2. N#Cc1c(=O)c2nc(NCc3ccccc3)ncc2n2ccccc12
3. Cc1nc2nc(SCC(=O)O)nn2c(C)c1Cc1ccccc1Cl
4. COc1ccc2cc(C)c3nnc(SCc4cccnc4)n3c2c1

Response:
1. inactive
2. inactive
3. inactive
4. inactive

* * *

experiment: reduced mouse 2C T cell binding to pMHC/ICAM-1 vesicles – MLPCN validation set, flow cytometry, LFA-1/ICAM-1 modulator project, pilot screen (AID 2523); conditions: 2C mouse CD8+ T cells, at 7 µM, stronger effect = lower value;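 also: mean PE anti-B7-1 fluorescence of CD8+ cells relative to row control; 100% = QL9-loaded vesicles with DMSO vehicle in the same plate row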
The label is MET for vesicle binding response below 200% and NOT MET for vesicle binding response equal to or exceeding 200%.

| molecule | assigned.category |
| --- | --- |
| COCC1CCCN(Cc2cn[nH]c2-c2cc3ccccc3o2)C1 (stereo not given) | MET |
| COc1ccc2oc(-c3ccco3)cc(=O)c2c1 | MET |
| CC(C)(C)OC(=O)COc1cc(OCC(=O)OC(C)(C)C)c2c(=O)cc(-c3ccccc3)oc2c1 | MET |

Query: Does COC(=O)[C@H]1[C@H]2C[C@@H]3c4[nH]c5cc(OC)ccc5c4CCN3C[C@H]2C[C@@H](OC(=O)c2ccc(N)cc2)[C@@H]1OC have vesicle binding response strictly under 200%?
Response: NOT MET

* * *

So I've got a bunch of compounds here, and I need their GFP response, % of DMSO values.
assay: yeast AGP1-GFP level changes, GLN3 branch – cell-based, multiplex flow cytometry, S. cerevisiae, primary screen (AID 1887); details: 3 h, at 10 µM, stronger effect = higher value;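 also: AGP1-GFP fusion strain of S. cerevisiae within a five-strain barcoded multiplex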
Results filed as inconclusive are left out.
Give bare numbers, in %.

| compound | GFP response, % of DMSO (%) |
| --- | --- |
| CC(C)(C)N(Cc1ccccc1)C(=O)c1ccc(Br)o1 | 101 |
| COc1ccc(/C=C\c2cc(OC)c(OC)cc2CC[N+](C)(C)C)cc1OC | 103 |
| CC(C)C1CC(CCNCc2ccc(N(C)C)cc2)(c2ccccc2)CCO1 (stereo unspecified) | 87.7 |
| COc1ccc(C2CC(c3ccc([N+](=O)[O-])cc3)=NN2C(=O)c2ccccc2)cc1OC (stereo unspecified) | 116 |
| COc1ccccc1OS(=O)(=O)c1ccc(NC(C)=O)cc1 | 103 |

API: the following record is the query input.
Query: # lookup: GFP response, % of DMSO of O=C(CN1C(=O)c2ccccc2S1(=O)=O)Nc1ccccc1
Response: 92.8
